Source: PubChem BioAssay (NCI)

Test system: A549/ATCC NSCLC
Test: NCI-60 one-dose screen, 48 h (100 = growth as untreated, 0 = no growth, -100 = all killed)
Conditions: 10 µM unless noted
The panel holds about 83,000 compounds, 20% with a hit somewhere; the sample as a whole holds those more often.
Class key for growth values: low interval = under 50%, middle interval = from 50% up to 90%, high interval = 90% and over

>>> category_label("CC(=O)N1N=C(c2ccc(Nc3nc(Nc4ccc(F)cc4)nc(Nc4ccc(F)cc4)n3)cc2)CC1c1ccc(N(C)C)cc1 (stereo not drawn)")
"low interval"
>>> category_label("CC(C)C1C2=C(NCCN1C(=O)c1ccncc1)C(C)(C)N(Cc1ccccc1)C2=O (stereo not drawn)")
"high interval"
>>> category_label("COc1cc(-c2nccc3[nH]c(-c4cccc5[nH]ccc45)nc23)cc(OC)c1OC")
"low interval"
>>> category_label("CC(O)CNC(Cc1ccccc1)c1ccc2c(c1)OCO2 (stereo not drawn)")
"middle interval"
>>> category_label("O=C(NCCCCCCNC(=O)OCc1ccc2c(Cl)cc(Cl)c(O)c2n1)OCc1ccc2c(Cl)cc(Cl)c(O)c2n1")
"low interval"
>>> category_label("N#Cc1ccc(O)c(C2=NCC(c3ccc(-c4ccccc4)cc3)O2)c1 (stereo not drawn)")
"low interval"
>>> category_label("Fc1ccc(/C=C/[C@@H]2C[C@@H](F)CCO2)cc1")
"high interval"
>>> category_label("Nc1ccc(Br)cc1C(F)(F)F")
"high interval"
>>> category_label("C=CCn1cc(-c2nc3ccccc3s2)c2cc(-c3ccc4c5c(cccc35)C(=O)N(CCO)C4=O)ccc21")
"high interval"
>>> category_label("C=CC(=O)Nc1cccc(Oc2nccc(Nc3nnc(-c4ccc(Br)cc4)s3)n2)c1")
"high interval"
>>> category_label("O=C(NCCCCO)c1cncnc1Nc1ccc2c(ccn2Cc2cccc(F)c2)c1")
"middle interval"
>>> category_label("COc1ccc(/C=C2\\c3cc(OC)c(OC)c(OC)c3CC[C@@H]2O)cc1F")
"low interval"
>>> category_label("CN(C)CCCNC(=O)c1cncnc1Nc1ccc2c(ccn2Cc2cccc(F)c2)c1")
"middle interval"
>>> category_label("Cc1c2ccccc2nc2cc3c(cc12)[C@H]1CC[C@]2(C)C(=O)CC[C@H]2[C@@H]1CC3")
"middle interval"
>>> category_label("COC(=O)c1nc(-c2ccccc2)oc1S(=O)(=O)N1CCCC(C)C1 (stereo not drawn)")
"high interval"
>>> category_label("CNC(=O)c1cc(Oc2ccc3c(c2)sc2nc(-c4cc(C(F)(F)F)cc(C(F)(F)F)c4)cn23)ccn1")
"low interval"
>>> category_label("CCCCO[C@@H]1C=C2[C@H]3CC(C)(C)C(=O)C[C@]3(C(=O)O[C@@H]3O[C@H](CO[C@@H]4O[C@H](CO)[C@@H](OC5OC(C)C(O)C(O)C5O)[C@H](O)[C@H]4O)[C@@H](O)[C@H](O)[C@H]3O)CC[C@@]2(C)[C@]2(C)CC[C@H]3C(C)(C)C(=O)CC[C@]3(C)[C@@H]12 (stereo partly drawn)")
"middle interval"
>>> category_label("CCCCCCCCCCCCCCCCCCOc1ccccc1CC(=O)NCC[N+](C)(C)C")
"low interval"
>>> category_label("COc1ccc2cc(-c3nc4ccc(C)cn4c3NCc3ccco3)c(=O)[nH]c2c1")
"middle interval"
>>> category_label("c1cc(OCCN2CCCCC2)ccc1CNc1ccc2nc(CCC3CCCCC3)[nH]c2c1")
"low interval"
>>> category_label("O=C1/C(=C/c2cccc(Br)c2)COc2ccc(O)cc21")
"middle interval"
>>> category_label("Cc1cccc(NC(=O)Cn2cc(CN3CCN(c4ccnc5cc(Cl)ccc45)CC3)nn2)c1")
"high interval"
>>> category_label("COc1ccc(-c2cc(C(=O)N3N=C(c4ccc(N)cc4)CC3c3ccc(Cl)cc3)c3ccccc3n2)cc1 (stereo not drawn)")
"low interval"
>>> category_label("Cc1c(O)cc(-c2cnc(N/N=C/c3ccccc3)s2)c(O)c1C")
"high interval"
>>> category_label("Cc1ccc(S(=O)(=O)c2nc(-c3ccccc3)oc2SCC(N)=O)cc1")
"high interval"
>>> category_label("Cc1ccc(NC(=O)c2sc3nc(C)c(C(O)c4ccccc4)cc3c2N)cc1 (stereo not drawn)")
"low interval"
>>> category_label("COc1cc(Cc2cc(-c3ccccc3)nn(Cc3ccccc3)c2=O)cc(OC)c1OC")
"low interval"
>>> category_label("Cc1ccc2cnc(N)c(C#Cc3cc(C(=O)Nc4ccc(CN5CCN(C)CC5)c(C(F)(F)F)c4)cnc3C)c2c1")
"low interval"
>>> category_label("O=C(c1cccc(N2CCOCC2)n1)c1c[nH]c2ccccc12")
"high interval"
>>> category_label("COc1ccc(/C=N/NC(=O)Cn2c(-c3ccc(S(C)(=O)=O)cc3)nc3ccccc32)cc1")
"high interval"
>>> category_label("O=[N+]([O-])c1ccccc1Sc1ccccc1[N+](=O)[O-]")
"middle interval"
>>> category_label("O=C(/C=C/C12c3ccccc3C(c3ccccc31)C1C(=O)NC(=O)C12)c1ccc(I)cc1 (stereo not drawn)")
"middle interval"
>>> category_label("O=C1CCCC1[n+]1ccccc1 (stereo not drawn)")
"middle interval"
>>> category_label("Cc1sc2nc(NCCN)[nH]c(=O)c2c1C")
"high interval"
>>> category_label("C=CC(CC(c1ccccc1)(c1ccccc1)c1ccccc1)N(CC)CC (stereo not drawn)")
"middle interval"
